- procedureDetails: amyloid nucleation score (Sup35N fusion, yeast selection) (log enrichment); library NNK1; higher = more nucleation; inactive = no reads after selection;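 note: zero at mode of non-aggregating sequences after 7 days selection at 30°C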
Entries are grouped by amyloid nucleation score into these classes: group 1 (below -0.4), group 2 (-0.4 to below 0.6), group 3 (0.6 or more)

These recorded examples may help you get a feel for the data.
# substance, cat
measured = [
    ("RTCDIRSLHPTTEGSETCGR", "group 2"),
    ("DGGAFAGRS", "group 1"),
    ("VMYVPPMACSLS", "group 2"),
]

Lookup: Input PSKPLGIIRLVSNQFPPSHK ; output its category
Found: group 2

Lookup: Please answer likewise for NLLSALNMVVFHNLEFYVIF
Found: group 3

Lookup: Please answer likewise for TLWYLLQITYVLKFKW
Found: group 2

Source of measurements: the supplement of paper PMC12042874
